These entries and their values trace back to ChEMBL document CHEMBL4390674.

target: UniProt P25021
Sequence (P25021 whole entry): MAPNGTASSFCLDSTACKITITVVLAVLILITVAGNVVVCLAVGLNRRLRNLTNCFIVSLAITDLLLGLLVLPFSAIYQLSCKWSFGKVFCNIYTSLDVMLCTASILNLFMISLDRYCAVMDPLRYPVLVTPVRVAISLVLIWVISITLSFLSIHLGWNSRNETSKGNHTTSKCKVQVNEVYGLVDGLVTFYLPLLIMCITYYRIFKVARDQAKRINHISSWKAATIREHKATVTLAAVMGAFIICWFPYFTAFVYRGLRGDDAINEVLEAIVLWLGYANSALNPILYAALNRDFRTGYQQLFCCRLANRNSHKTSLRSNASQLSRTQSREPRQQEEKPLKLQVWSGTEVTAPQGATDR
attribute-measured: pKi
pKi here: minus log base 10 of the concentration, concentration in moles per litre.

Cc1ncc2nccn2c1-c1ccc(Oc2nccc3occc23)cc1C(F)(F)F = 5.09

Consider the additional compound presented here.
Request: Test system UniProt P25021; read-out pKi; what value for Cc1cc(Oc2nccc3occc23)ccc1-c1c(C)ncc2nccn12 ?
Response: 5.10

---

molecular target: UniProtKB P07550; test: Displacement of [3H]-CGP12177 from recombinant human beta2 adrenergic receptor expressed in HEK Flp-In cells measured after 90 mins by microbeta scintillation counting method; type: cell-based
Sequence (P07550 whole entry): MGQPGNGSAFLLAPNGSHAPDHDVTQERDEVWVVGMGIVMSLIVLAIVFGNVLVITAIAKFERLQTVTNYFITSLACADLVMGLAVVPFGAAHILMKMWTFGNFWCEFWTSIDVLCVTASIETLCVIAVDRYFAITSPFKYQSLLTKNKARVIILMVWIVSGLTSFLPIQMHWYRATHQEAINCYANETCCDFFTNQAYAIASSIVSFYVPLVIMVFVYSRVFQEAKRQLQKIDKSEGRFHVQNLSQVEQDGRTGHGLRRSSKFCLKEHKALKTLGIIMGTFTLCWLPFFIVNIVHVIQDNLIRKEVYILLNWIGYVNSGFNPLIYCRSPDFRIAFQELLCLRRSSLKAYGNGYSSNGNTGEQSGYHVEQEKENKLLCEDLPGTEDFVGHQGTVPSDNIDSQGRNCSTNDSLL
attribute-measured: Ki (µM)
The response must be a number in µM with no trailing unit.

Worked examples follow.
FC(F)(F)c1cc(Oc2nccc3occc23)ccc1-c1cccc2nccn12 = 8.6
Cc1cc(Oc2nccc3occc23)ccc1-c1c(C)ncc2nccn12 = 9.3

Proceeding to the next molecule to report its Ki.
Request: Entry FC(F)(F)c1cc(Oc2nccc3ccsc23)ccc1-c1cccc2nccn12 has what Ki?
Response: 5.9
